Attribution: paper PMC3545278

MEASUREMENT_NOTES: Ultrafiltration
Format: in vitro ADME, mouse
DETAILS: mouse, mouse plasma
Where a name gives a salt, the structure may show the parent alone.
PROPERTY: recovery at 20 min, 10 μM (%)

- COMPOUND: "CC[C@H](C)C(=O)O[C@H]1C[C@@H](C)C=C2C=C[C@H](C)[C@H](CC[C@@H]3C[C@@H](O)CC(=O)O3)[C@H]21"
  UNIT: "%"
  READING: 82.1
- COMPOUND: "Nc1ccc(S(=O)(=O)Nc2ncccn2)cc1"
  UNIT: "%"
  READING: 108
- COMPOUND: "Nc1ccc(S(=O)(=O)Nc2nccs2)cc1"
  UNIT: "%"
  READING: 108
- COMPOUND: "CC(=O)O[C@H]1C(=O)[C@@]2(C)[C@H]([C@H](OC(=O)c3ccccc3)[C@]3(O)C[C@H](OC(=O)[C@H](O)[C@@H](NC(=O)c4ccccc4)c4ccccc4)C(C)=C1C3(C)C)[C@]1(OC(C)=O)CO[C@@H]1C[C@@H]2O"
  UNIT: "%"
  READING: 90.8
- COMPOUND: "COc1ccc2c(c1)c(CC(=O)O)c(C)n2C(=O)c1ccc(Cl)cc1"
  UNIT: "%"
  READING: 99
- COMPOUND: "CC[C@]1(O)C[C@@H]2CN(CCc3c([nH]c4ccccc34)[C@@](C(=O)OC)(c3cc4c(cc3OC)N(C)[C@H]3[C@@](O)(C(=O)OC)[C@H](OC(C)=O)[C@]5(CC)C=CCN6CC[C@]43[C@@H]65)C2)C1"
  UNIT: "%"
  READING: 87.5
- COMPOUND: "CC(C)(C)NCC(O)c1cc(O)cc(O)c1 (centres unmarked)"
  UNIT: "%"
  READING: 99.6
- COMPOUND: "CC(C)NCC(O)COc1cccc2ccccc12 (centres unmarked) [Propranolol HCl]"
  UNIT: "%"
  READING: 104

---

MEASUREMENT_NOTES: Ultrafiltration
DETAILS: human, plasma
Structures can show the parent of a compound that is named as a salt.
PROPERTY: fraction unbound at 20 min, 10 μM

- MOLECULE: "CC[C@H](C)C(=O)O[C@H]1C[C@@H](C)C=C2C=C[C@H](C)[C@H](CC[C@@H]3C[C@@H](O)CC(=O)O3)[C@H]21 [Lovastatin]"
  PROPERTY: "fraction unbound at 20 min, 10 μM"
  READING: 0.026
- MOLECULE: "O=C(CCCCCCC(=O)Nc1ccccc1)NO [Vorinostat]"
  PROPERTY: "fraction unbound at 20 min, 10 μM"
  READING: 0.396
- MOLECULE: "COc1ccc2c(c1)c(CC(=O)O)c(C)n2C(=O)c1ccc(Cl)cc1 [Indomethacin]"
  PROPERTY: "fraction unbound at 20 min, 10 μM"
  READING: 0.004
- MOLECULE: "Cc1nnc(NS(=O)(=O)c2ccc(N)cc2)s1 [Sulfamethiazole]"
  PROPERTY: "fraction unbound at 20 min, 10 μM"
  READING: 0.184
- MOLECULE: "C[C@]12CCC(=O)C=C1CC[C@@H]1[C@@H]2[C@@H](O)C[C@@]2(C)[C@H]1CC[C@]2(O)C(=O)CO [Hydrocortisone]"
  PROPERTY: "fraction unbound at 20 min, 10 μM"
  READING: 0.368
- MOLECULE: "CC(C)NCC(O)COc1cccc2ccccc12 (stereo not drawn) [Propranolol HCl]"
  PROPERTY: "fraction unbound at 20 min, 10 μM"
  READING: 0.328
- MOLECULE: "CC(=O)Nc1ccc(O)cc1 [Acetaminophen]"
  PROPERTY: "fraction unbound at 20 min, 10 μM"
  READING: 0.733

[1] CC(C)(C)NCC(O)c1cc(O)cc(O)c1 (stereo not drawn) [Terbutaline]
[2] CC(=O)O[C@H]1C(=O)[C@@]2(C)[C@H]([C@H](OC(=O)c3ccccc3)[C@]3(O)C[C@H](OC(=O)[C@H](O)[C@@H](NC(=O)c4ccccc4)c4ccccc4)C(C)=C1C3(C)C)[C@]1(OC(C)=O)CO[C@@H]1C[C@@H]2O [Paclitaxel]
input: Of 1 and 2 , which one carries the higher reported fraction unbound at 20 min, 10 μM? Respond using the label that marks the chosen record.
output: 1
(1: 0.819, 2: 0.132)
